procedure summary: soluble fraction after stress (log2 fold change); higher = more stays soluble; pooled small domains, quantitative proteomics
condition label: stress: pH 4
Listing of entries alongside the reported soluble fraction (log2).
The answer should be a number; do not append a unit.

ordered_residues=HMKDIIVDPQGQYNHPGVPTRIPSSDITMKGVGYPVLGIADNGQKQMMQPGQDYKFPGAKYVDEYPQM assay_endpoint="soluble fraction (log2)" measured_result=0.0501
ordered_residues=HMSSSYVYGGNGEIVILSDVSKHLNVYNLNGQKVTDVNLTAGELQRISIATGIYVVGGKKIVV assay_endpoint="soluble fraction (log2)" measured_result=-0.121
ordered_residues=HMENMRLILASNLRRIREERRLSLNKVSELTGVSKSMLGQIERGESNPTLQTVWKIANGLRVSLTDLTEVP assay_endpoint="soluble fraction (log2)" measured_result=0.252
ordered_residues=HMIAITVGSKVRVKAGATFSDGTKPFTEVYNTVYDVQLLSRNGKEARIGIGEQWTGWMYISDLYPADQ assay_endpoint="soluble fraction (log2)" measured_result=0.00391
ordered_residues=HMAITYETKVISGVNLRSAPSTSASVYQLIPKGENIHVVQKVNDYWLKVQTKDGKTGYISASSKYTNYIG assay_endpoint="soluble fraction (log2)" measured_result=0.0502

Lab book: soluble fraction (log2) of `HMSGLEDIKKKILEDAGIKKGSVKFVKVDKDYDDGIWKYEIDFVYDGKEYEYEIEVETGKILSRKTEKSD` noted as 0.165

Lab book: soluble fraction (log2) of `HMTPQNAAAVLRYLSSGAIKGVGPSTAQRIVEKFGAESLDIIQNKPEELATIRGISLSKALAVSEEYNKQY` noted as 0.0689

###

procedure summary: soluble fraction after stress (log2 fold change); higher = more stays soluble; pooled small domains, quantitative proteomics
condition label: stress: pH 4
Listing of entries alongside the reported soluble fraction (log2).

ordered_residues=HMATAEETTPLWARNRLSHAIFGPGSVTGEDERSFEVAFDNGDTLNFSKKSAHLYFTAMSSR measured_result=-0.808
ordered_residues=HMDAMLSEQLREKRGELLIEVDAIAGNALRWATLSAEQQDAWAVYRQALLDVPQQAGFPNDVVWPINPN measured_result=-0.982
ordered_residues=HMGGHLAYGFSRRFGLLIDEQQGEPVIIARPDYSPVHYAEARRIVGQPAALRVVDEQAFNQLLQSQQESGA measured_result=-0.383
ordered_residues=HMNDRLAGMEGQRGEAATNFDQGEGKVKVGDTVWLAKQSDSTVIVEGDQIVVTGSENGLLKVRL measured_result=-0.453
ordered_residues=HMKQVTVGGTINAGGARIYADSYGNGGGRQTFGSDPIYTVLQERNGYILTRWHKLSSGYTGWFKKSDVSA measured_result=-0.00968

Lab book: soluble fraction (log2) of `HMNHHTEQQLKALSNKVKDHRMRMRLLAVAHFKAGKNKADVARTLNVSRRMVNEWVANYFKGGVSALES` noted as -0.047

Lab book: soluble fraction (log2) of `HMDPERLDQLQNPDPAVRREAIIALGRSKDLAALPELAKVYKNDPVPELRELARQAGRYIQQENRP` noted as 0.254

Lab book: soluble fraction (log2) of `HMSDQTYVKDPETGEIFRVHKRVWETGEFWRDPVWGNILGGVERGSELERLLREEGWRPLQQSLEGFPEQ` noted as -0.276

###

procedure summary: soluble fraction after stress (log2 fold change); higher = more stays soluble; pooled small domains, quantitative proteomics
condition label: stress: pH 4
assay endpoint: soluble fraction (log2)
The answer should be a number; do not append a unit.

ordered_residues=HMKNMSLGERIKEQRKSSGLSQEKVAEFVGVSRQAVTKWETGQSAPSTENLFKLAEIFGTTVDILLA assay_endpoint="soluble fraction (log2)" measured_result=-0.0228
ordered_residues=HMNLGVIYSLKAEVRSEPNTFSTRLFEVHEGLKVSINQLENDWVEIELLDGKTGWISNDQIRLI assay_endpoint="soluble fraction (log2)" measured_result=-0.772
ordered_residues=HMFTEEQMDWLRLIKDHIVASLSILPEDLELTPFDRKGGLLGFYDAFGDEYEKILQEMNEELVA assay_endpoint="soluble fraction (log2)" measured_result=-0.43
ordered_residues=HMTSAHEKAFDLFDGGKLSEKALLIAVGAERSGFELAGDLRLRTLTAFEDGRLSEDAMIKLL assay_endpoint="soluble fraction (log2)" measured_result=-1.5
ordered_residues=HMGNLPPAVINARIKVSPAGRGVFVGFDKGSTSTEAKYADAIRGYLPNIEFNKDDHESVVTVPFNFR assay_endpoint="soluble fraction (log2)" measured_result=-0.0258

Lab book: soluble fraction (log2) of `HMSHGFFELKTTQKEALIKLLDSHPNFTHTKTEADLTTAFLKLPMDAEQFNKLLFTNGIVLSHLVKRK` noted as -0.276

Lab book: soluble fraction (log2) of `HMEGVTVPDVTRISLDEAEELLTSYGLRFEVADRRANSAFPGNYVIDQAPSAEVIVKPNRKIYLTVNAA` noted as -0.188

Lab book: soluble fraction (log2) of `HMDIFSSFVAIKNANVRELPTAKSAQVATLSKGSEVTALGKVKGKNWYLVARDGKELGYVFGSLIAEAET` noted as 0.143

###

Listing of entries alongside the reported soluble fraction (log2).
procedure summary: soluble fraction after stress (log2 fold change); higher = more stays soluble; pooled small domains, quantitative proteomics
condition label: stress: pH 4
The answer should be a number; do not append a unit.

ordered_residues=HMNLIFFSENLSTFRKEKGWTQSELAEKLGVKANTISNYEKGISTPDYKIIAKLRELFEMPTDVLLYSNLS assay_endpoint="soluble fraction (log2)" measured_result=-0.97

Lab book: soluble fraction (log2) of `HMNAAFMKAERLLAILNILLTGKRVSSTELAKKLEVSVRTVYRDVEALSEAGFPVYATMGRDGGFGLIEGF` noted as -1.58

Lab book: soluble fraction (log2) of `HMGVSDDMARGVVRARQFLSDFAAVPLDRMTPAEAVARARQLKSELETDAKHSPWLLDVLSNA` noted as -0.37

Lab book: soluble fraction (log2) of `HMANVQLAKNLKTLRKKYNYTQQDVSTFLNITRQAYSHYEQALREPDLNTLVHLSRFYQVTLDELI` noted as -1.6

Lab book: soluble fraction (log2) of `HMRMSQLSRLISILTLLKSKRLLTATELAEKYDVSIRTVYRDIRKLEEAGIPVYTIEGRGYSLMDNYT` noted as -0.299

Lab book: soluble fraction (log2) of `HMEYQSLVLDFLEQGDFNAEKLKDYQRAFAKQNGMQTLPSKSQILQAYFQLVEEKKINKNSDFELLLRKR` noted as -0.362

Lab book: soluble fraction (log2) of `HMNIQPAMLNAANGGVAWKERGISMSQIMKRNAHTAEGSQKLWDYAFENFFQKNIDAGNIRDDR` noted as -0.237

Lab book: soluble fraction (log2) of `HMGRGAAKGPLKELGLDPVTGRPLVVKDGKFGMYVTDGETNAGLRRGDLVEQLTLDRGMELLAERRARADQ` noted as -0.258

Lab book: soluble fraction (log2) of `HMTSVAYVIDRINKIQNVYSELEALGLKDEFEKILSNIEDLSKKDIREIKTLLKTKGVIKNLDDLNVKL` noted as -1.24

Lab book: soluble fraction (log2) of `HMSVNAPMPGKIVNVLVSEGQKVNSGDVLLILEAMKMQNEIAATQAGTVKAINVAAGQSVKVGDALVN` noted as -0.147

Lab book: soluble fraction (log2) of `HMLNDKLQTLFSLFPAVDKDLKKKGVTRQILWEQYKRNHPDGVGRSQFNYYYAQWKDQVNPT` noted as 0.22

Lab book: soluble fraction (log2) of `HMAQKQLYIAGTDYTKNSTSQLVLAYFPAKPSSIKIFFDGIYQNKDKWSLFGKTIIFGLPISSNAVEVHYE` noted as -0.201

Lab book: soluble fraction (log2) of `HMQSEISRIGRILKERRLQLGYTQEYAAEKAGISYSYYTKIERGQQLPSLEVAMVLSKTFSLSMDRWL` noted as -0.599

Lab book: soluble fraction (log2) of `HMNNFTPEHLEKDIEGSLFFRRLKETAREEPGSLTVAQKDFIQMWHDQADGVYTLRQVFVQTAFDHVRSL` noted as 0.22

Lab book: soluble fraction (log2) of `HMVYLPGEEIPLKIIQEGKESGQGVGYLEDGTMVVVENGRRYLNQEVLVQVTKILQTNAGRLIFAVP` noted as 0.11

Lab book: soluble fraction (log2) of `HMFSPSDEDLELAHRQIRAFEEVEANGKSIAVVDGRIVESLHIVTARDTLEKAKAITALAEEM` noted as -0.0013

Lab book: soluble fraction (log2) of `HMLTLAVPNSINMRLDKYLSENIDYLSRSKIQGLINDGKVTINGENEKSSYKLNGDESIVIYYEE` noted as -0.775
